Taken from patent US11072588B2.

test system: E. coli 50857972; experiment: MIC, multi-resistant clinical isolate; format: cell-based, Escherichia coli; conditions: RBC EC50 / MIC
endpoint_label: selectivity index (EC50/MIC)

                                   compound  result
0  CC(C)(C)c1ccc(CC2(Cc3ccc(C(C)(C)C)cc3)C(=O)N(CCCCN)C(=O)N(CCCCN)C2=O)cc1 [Compound 7(i)]    (36)
1  CC(C)(C)c1cc(CC2(Cc3cc(C(C)(C)C)cc(C(C)(C)C)c3)C(=O)N(CCCCN)C(=O)N(CCCCN)C2=O)cc(C(C)(C)C)c1 [7(iii)]    (<1)
2  NCCCCN1C(=O)N(CCCCN)C(=O)C(Cc2ccc3ccccc3c2)(Cc2ccc3ccccc3c2)C1=O [7(iv)]    (15)
3  CC(C)(C)c1ccc(CC2(Cc3ccc(C(C)(C)C)cc3)C(=O)N(CCCCNC(=N)N)C(=O)N(CCCCNC(=N)N)C2=O)cc1 [Compound 8(i)]    (19)
4  NCCCCN1C(=O)N(CCCCN)C(=O)C(Cc2cc(C(F)(F)F)cc(C(F)(F)F)c2)(Cc2cc(C(F)(F)F)cc(C(F)(F)F)c2)C1=O [7(vi)]    (23)
5  N=C(N)NCCCCN1C(=O)N(CCCCNC(=N)N)C(=O)C(Cc2ccc3ccccc3c2)(Cc2ccc3ccccc3c2)C1=O [8(iv)]    (17)
6  NCCCCN1C(=O)N(CCCCN)C(=O)C(Cc2cc(Br)cc(Br)c2)(Cc2cc(Br)cc(Br)c2)C1=O [7(ii)]    (10)
7  N=C(N)NCCCCN1C(=O)N(CCCCNC(=N)N)C(=O)C(Cc2ccc(F)c3ccccc23)(Cc2ccc(F)c3ccccc23)C1=O [8(v)]    (22)
8  N=C(N)NCCCCN1C(=O)N(CCCCNC(=N)N)C(=O)C(Cc2cc(Br)cc(Br)c2)(Cc2cc(Br)cc(Br)c2)C1=O [8(ii)]    (14)
9  NCCCCN1C(=O)N(CCCCN)C(=O)C(Cc2ccc(F)c3ccccc23)(Cc2ccc(F)c3ccccc23)C1=O [7(v)]    (10)

====

test system: K. pneumoniae 50531633; assay: MIC, multi-resistant clinical isolate; format: cell-based, Klebsiella pneumoniae; conditions: RBC EC50 / MIC, K. pneumoniae 50531633, resistant to colistin
endpoint_label: selectivity index (EC50/MIC)

In [3]: df
Out[3]:
                                   compound  result
0  N=C(N)NCCCCN1C(=O)N(CCCCNC(=N)N)C(=O)C(Cc2ccc(F)c3ccccc23)(Cc2ccc(F)c3ccccc23)C1=O [8(v)]    (11)
1  N=C(N)NCCCCN1C(=O)N(CCCCNC(=N)N)C(=O)C(Cc2ccc3ccccc3c2)(Cc2ccc3ccccc3c2)C1=O [8(iv)]     (8)
2  CC(C)(C)c1ccc(CC2(Cc3ccc(C(C)(C)C)cc3)C(=O)N(CCCCN)C(=O)N(CCCCN)C2=O)cc1 [Compound 7(i)]     (9)
3  NCCCCN1C(=O)N(CCCCN)C(=O)C(Cc2cc(Br)cc(Br)c2)(Cc2cc(Br)cc(Br)c2)C1=O [7(ii)]    (10)
4  NCCCCN1C(=O)N(CCCCN)C(=O)C(Cc2ccc3ccccc3c2)(Cc2ccc3ccccc3c2)C1=O [7(iv)]     (8)
5  CC(C)(C)c1ccc(CC2(Cc3ccc(C(C)(C)C)cc3)C(=O)N(CCCCNC(=N)N)C(=O)N(CCCCNC(=N)N)C2=O)cc1 [Compound 8(i)]    (19)

====

MIC values by entry
system: A. baumanii K12-21; assay: MIC, multi-resistant clinical isolate; type: cell-based, Acinetobacter baumannii; conditions: Acinetobacter baumannii, K1221, read-out: Antimicrobial activity (MIC)
endpoint_label: MIC

>>> df
                            molecule_smiles  endpoint_label    result
0  N=C(N)NCCCCN1C(=O)N(CCCCNC(=N)N)C(=O)C(Cc2ccc(F)c3ccccc23)(Cc2ccc(F)c3ccccc23)C1=O             MIC   8 µg/mL
1  N=C(N)NCCCCN1C(=O)N(CCCCNC(=N)N)C(=O)C(Cc2cc(Br)cc(Br)c2)(Cc2cc(Br)cc(Br)c2)C1=O             MIC   4 µg/mL
2  NCCCCN1C(=O)N(CCCCN)C(=O)C(Cc2cc(Br)cc(Br)c2)(Cc2cc(Br)cc(Br)c2)C1=O             MIC  16 µg/mL
3  CC(C)(C)c1ccc(CC2(Cc3ccc(C(C)(C)C)cc3)C(=O)N(CCCCNC(=N)N)C(=O)N(CCCCNC(=N)N)C2=O)cc1             MIC   4 µg/mL

====

tested on: K. pneumoniae 50625602; assay: MIC, multi-resistant clinical isolate; format: cell-based, Klebsiella pneumoniae; conditions: RBC EC50 / MIC
endpoint_label: selectivity index (EC50/MIC)

                            molecule_smiles       target_under_test  result
0  NCCCCN1C(=O)N(CCCCN)C(=O)C(Cc2ccc(F)c3ccccc23)(Cc2ccc(F)c3ccccc23)C1=O  K. pneumoniae 50625602     (5)
1  NCCCCN1C(=O)N(CCCCN)C(=O)C(Cc2cc(C(F)(F)F)cc(C(F)(F)F)c2)(Cc2cc(C(F)(F)F)cc(C(F)(F)F)c2)C1=O  K. pneumoniae 50625602     (6)

====

Tested on: E. faecium 50673722
Experiment: MIC, multi-resistant clinical isolate
Assay type: cell-based, Enterococcus faecium
Details: Enterococcus faecium, read-out: Antimicrobial activity (MIC)
Procedure: Working solutions of the test derivatives were prepared with up to 100% DMSO and stored at −20° C. If necessary, the solutions were heated to 40-80° C. before testing to facilitate complete dissolution. Double-distilled water was used in all dilutions prepared. […]
endpoint_label: MIC

>>> df
                            molecule_smiles    result
0  N=C(N)NCCCCN1C(=O)N(CCCCNC(=N)N)C(=O)C(Cc2cc(Br)cc(Br)c2)(Cc2cc(Br)cc(Br)c2)C1=O   4 µg/mL
1  N=C(N)NCCCCN1C(=O)N(CCCCNC(=N)N)C(=O)C(Cc2ccc(F)c3ccccc23)(Cc2ccc(F)c3ccccc23)C1=O   4 µg/mL
2  CC(C)(C)c1cc(CC2(Cc3cc(C(C)(C)C)cc(C(C)(C)C)c3)C(=O)N(CCCCN)C(=O)N(CCCCN)C2=O)cc(C(C)(C)C)c1   2 µg/mL
3  NCCCCN1C(=O)N(CCCCN)C(=O)C(Cc2cc(Br)cc(Br)c2)(Cc2cc(Br)cc(Br)c2)C1=O   4 µg/mL
4  N=C(N)NCCCCN1C(=O)N(CCCCNC(=N)N)C(=O)C(Cc2ccc3ccccc3c2)(Cc2ccc3ccccc3c2)C1=O  16 µg/mL
5  NCCCCN1C(=O)N(CCCCN)C(=O)C(Cc2cc(C(F)(F)F)cc(C(F)(F)F)c2)(Cc2cc(C(F)(F)F)cc(C(F)(F)F)c2)C1=O   8 µg/mL
6  NCCCCN1C(=O)N(CCCCN)C(=O)C(Cc2ccc(F)c3ccccc23)(Cc2ccc(F)c3ccccc23)C1=O   8 µg/mL

====

system: human metastatic melanoma (A2058, ATCC CRL-11147) cells; assay: Anti-cancer activity against A2058 cells; format: cell-based; settings: A2058, read-out: Anti-cancer IC50
endpoint_label: IC50 (µg/mL)

>>> df
                                   compound                         target_under_test  numeric_result
0  NCCCCN1C(=O)N(CCCCN)C(=O)C(Cc2ccc3ccccc3c2)(Cc2ccc3ccccc3c2)C1=O [7(iv)]  human metastatic melanoma (A2058, ATCC CRL-11147) cells               1
1  NCCCCN1C(=O)N(CCCCN)C(=O)C(Cc2ccc(F)c3ccccc23)(Cc2ccc(F)c3ccccc23)C1=O [7(v)]  human metastatic melanoma (A2058, ATCC CRL-11147) cells               1
2  NCCCCN1C(=O)N(CCCCN)C(=O)C(CCCc2ccccc2)(CCCc2ccccc2)C1=O [Compound 9]  human metastatic melanoma (A2058, ATCC CRL-11147) cells             2.9
3  CC(C)(C)c1ccc(CC2(Cc3ccc(C(C)(C)C)cc3)C(=O)N(CCCCN)C(=O)N(CCCCN)C2=O)cc1 [Compound 7(i)]  human metastatic melanoma (A2058, ATCC CRL-11147) cells               1
4  CC(C)(C)c1ccc(CC2(Cc3ccc(C(C)(C)C)cc3)C(=O)N(CCCCNC(=N)N)C(=O)N(CCCCNC(=N)N)C2=O)cc1 [Compound 8(i)]  human metastatic melanoma (A2058, ATCC CRL-11147) cells               2
5  CC(C)(C)c1cc(CC2(Cc3cc(C(C)(C)C)cc(C(C)(C)C)c3)C(=O)N(CCCCN)C(=O)N(CCCCN)C2=O)cc(C(C)(C)C)c1 [7(iii)]  human metastatic melanoma (A2058, ATCC CRL-11147) cells               1
